Kindly state TGI for each of the entries shown.
# Tested on: HCT-15 colon
# assayProtocol: NCI tumour cell line growth inhibition, 48 h
Reply with just the number (in µM).

Name the recorded TGI for COc1ccc2nccc(NCCCN3CCN(CCCNc4ccnc5ccc(OC)cc45)CC3)c2c1 . 32.4

Item: CCOC(=O)c1ccc2[nH]c(O)c(C(=Nc3ccc(N(C)C(=O)CN4CCN(C)CC4)cc3)c3ccccc3)c2c1 1.81

----------
# System: OVCAR-5 ovarian
# assayProtocol: NCI tumour cell line growth inhibition, 48 h
observedProperty: TGI (µM)
Reply with just the number (in µM).

Name the recorded TGI for COc1ccc2c(c1)CN1C(=N2)CSC1c1c(Cl)cccc1[N+](=O)[O-] (configuration not stated) . 95.7

Item: CC1=C(C(=O)Nc2cc(F)c(F)cc2F)C(c2ccc3c(c2)OCO3)C(C(=O)Nc2cc(F)c(F)cc2F)=C(C)N1 59.9

Item: CCCc1cc2c(cc1O)CC[C@@H]1[C@@H]2CC[C@]2(C)[C@@H](O)CC[C@@H]12 34.7

Item: O=C(CCN1CCCCC1)Nc1ccc2sc3ccccc3c(=O)c2n1 43
